Below, each entry is listed alongside its reported Percent Effect.
- TARGET_OF_ASSAY: Protein translocase subunit SecA (Escherichia coli (strain K12))
- MEASUREMENT_DESCRIPTION: Assay to Identify E. coli SecA ATPase Inhibitors
- Type: functional
- Parameters: scale not given: direction of the effect not stated beside the values
- COND: 30 µM
Results with a measured potency or affinity are listed apart.
METRIC_NAME: Percent Effect (%)

INSERT INTO results (molecule, metric_name, unit_of_measure, measured_number) VALUES
  ('Cc1cc(-c2cnc(N3CCCC(C)C3)nc2-c2cccnc2C)on1 (configuration not stated)', 'Percent Effect', '%', -7.33),
  ('O=C(c1ccncc1F)N1CCc2ncnc(-c3ccncc3)c2CC1', 'Percent Effect', '%', -6.29),
  ('NC(=O)CSCCC(=O)N1CCCC1c1ccsc1 (configuration not stated)', 'Percent Effect', '%', -2.98),
  ('CCOc1ccc(NC(=O)CN2CCN(c3nccn3C)CC2)cc1', 'Percent Effect', '%', 0.133),
  ('NC(=O)COc1ccc(CNCc2ccc(F)cc2F)cc1', 'Percent Effect', '%', -2.69),
  ('CC(C)c1ccc(C(C)NC(=O)N2CCC(n3cncn3)CC2)cc1 (configuration not stated)', 'Percent Effect', '%', -4.08),
  ('N#Cc1cccc(S(=O)(=O)N2CCCCC2CCN2CCCC2=O)c1 (configuration not stated)', 'Percent Effect', '%', -5.51),
  ('CCN1CC2(CCNCC2)COc2ccccc2S1(=O)=O', 'Percent Effect', '%', -1.39),
  ('CC(C)OCCN1CCN(C(=O)c2cccc(CC#N)c2)CC1', 'Percent Effect', '%', -0.779),
  ('Cc1nc(C2CCCN(C(=O)c3scnc3C)C2)no1 (configuration not stated)', 'Percent Effect', '%', -3.05),
  ('Cc1ccsc1-c1nnc(C2CCN(Cc3ccc(F)cc3)CC2)o1', 'Percent Effect', '%', -4.79),
  ('CC(CNC(=O)Nc1cn[nH]c1)N1CCOCC1 (configuration not stated)', 'Percent Effect', '%', -0.592);

###

Below, each entry is listed alongside its reported Percent Effect.
- TARGET_OF_ASSAY: Tyrosyl-tRNA synthetase, putative (Trypanosoma cruzi (strain CL Brener))
- MEASUREMENT_DESCRIPTION: Trypanosoma cruzi tyrosyl tRNA synthetase (TcYRS) _High Tyrosine SOP; further: in the data most compounds retested in dose-response had high values
- Format: functional
- Parameters: scale not given: direction of the effect not stated beside the values
- COND: 30 µM
METRIC_NAME: Percent Effect (%)

INSERT INTO assay_data (compound, target_of_assay, metric_name, unit_of_measure, measured_number) VALUES
  ('CCN(CC1CN(CCc2ccccn2)CCO1)c1cccnn1 (stereo unspecified)', 'Tyrosyl-tRNA synthetase, putative (Trypanosoma cruzi (strain CL Brener))', 'Percent Effect', '%', 0.546),
  ('c1cnnc(NCC2CN(Cc3cccc4c3OCCO4)CCO2)c1 (stereo unspecified)', 'Tyrosyl-tRNA synthetase, putative (Trypanosoma cruzi (strain CL Brener))', 'Percent Effect', '%', 10.7),
  ('NCc1cnn(-c2ccccc2C(=O)NCc2ccncc2)c1', 'Tyrosyl-tRNA synthetase, putative (Trypanosoma cruzi (strain CL Brener))', 'Percent Effect', '%', 3.23),
  ('CN1[C@H](Cn2cncn2)C[C@@H]2CN(Cc3cccc(C#N)c3)CC[C@@H]21', 'Tyrosyl-tRNA synthetase, putative (Trypanosoma cruzi (strain CL Brener))', 'Percent Effect', '%', 9.9),
  ('CC(C)(C)C(=O)NCCn1ccc(-c2ccncc2)n1', 'Tyrosyl-tRNA synthetase, putative (Trypanosoma cruzi (strain CL Brener))', 'Percent Effect', '%', 1.07),
  ('CC(NCc1cccnc1)c1ccc(OCC(=O)NC2CC2)cc1 (stereo unspecified)', 'Tyrosyl-tRNA synthetase, putative (Trypanosoma cruzi (strain CL Brener))', 'Percent Effect', '%', -2.08);

###

- TARGET_OF_ASSAY: AMP-activated protein kinase, AMPK (Homo sapiens) (UniProt P54646+O43741+P54619+Q9UGJ0+Q9Y478+Q13131+Q9UGI9)
- MEASUREMENT_DESCRIPTION: AMP-dependent Kinase enzyme assay. An in vitro enzyme assay that detects ADP turnover that is directly proportional to AMPK activity. This uses naive AMPK that is activated during the assay with MK-8722
- Type: functional
- Parameters: scale not given: direction of the effect not stated beside the values
- COND: 30 µM
METRIC_NAME: Percent Effect (%)

INSERT INTO assay_data (molecule, metric_name, unit_of_measure, measured_number) VALUES
  ('CS(=O)(=O)N1CCOCC2(CCN(C(=O)c3cccnc3)CC2)C1', 'Percent Effect', '%', 2.01),
  ('CCC(C)(NCC(=O)Nc1ccccc1)c1nc(C)cs1 (configuration not stated)', 'Percent Effect', '%', -4.26),
  ('CC(O)CN1CCN(C(=O)c2cccn2Cc2ccncc2)CC1 (configuration not stated)', 'Percent Effect', '%', 0.216),
  ('O=C(c1cnoc1)N1CCC[C@]2(C[C@H](Oc3ncccc3F)CO2)C1', 'Percent Effect', '%', -3.76),
  ('Cc1nc(CN2CCCN(CC(=O)Nc3cccnc3)CC2)no1', 'Percent Effect', '%', 4.53),
  ('CN(C)C(=O)CN1CCCC2(CCN(c3ccsc3)C2=O)C1 (configuration not stated)', 'Percent Effect', '%', 2.54),
  ('CCCc1nc(N2CCN(CC)CC2)c2c(n1)c(C)nn2CC', 'Percent Effect', '%', 2.46),
  ('CCC1=N[C@@]2(CC[C@@H]3CN(CC4CC4)C[C@@H]32)C(=O)N1C', 'Percent Effect', '%', 1.5),
  ('Cc1cc(C)c(CNC(=O)N(C)Cc2sccc2C)c(=O)[nH]1', 'Percent Effect', '%', -5.42),
  ('Cc1nn(C)c(C)c1CC(=O)N1CCCC(n2cccn2)C1 (configuration not stated)', 'Percent Effect', '%', -2.25),
  ('O=S1(=O)COCCN1Cc1cccc(Cl)c1', 'Percent Effect', '%', -2.78),
  ('Cc1ccc(CNC(=O)NCc2csc(C)n2)cn1', 'Percent Effect', '%', -8.56),
  ('Cc1nn(C)c(C)c1-c1cncc(C2CCN(S(C)(=O)=O)CC2)n1', 'Percent Effect', '%', 22.7),
  ('CC(C)(C(=O)NCC(N)=O)c1ccccc1F', 'Percent Effect', '%', -0.917),
  ('Cc1cnccc1N1CCCN(C(=O)CCCc2cn[nH]c2)CC1', 'Percent Effect', '%', -5.34),
  ('N#Cc1c(F)cccc1N1CCC(NS(=O)(=O)c2cccs2)CC1', 'Percent Effect', '%', 24.6),
  ('CC(CN1CCOCC1)NCc1nncn1C1CCCCC1 (configuration not stated)', 'Percent Effect', '%', -4.5),
  ('CCn1c(CN2CCN(CC(N)=O)CC2)nc2c(F)cccc21', 'Percent Effect', '%', 7.34),
  ('Cc1ccc(N2CC[C@H]3OCC[C@@]3(C(=O)NC(C)C)C2)nn1', 'Percent Effect', '%', -2.16),
  ('CN(Cc1ccc(F)cc1)CC1(O)CCN(C(=O)c2cccn2C)C1 (configuration not stated)', 'Percent Effect', '%', 2.06),
  ('Cc1cccc(C(=O)N2C[C@@H]3OCCN(c4ncccn4)[C@@H]3C2)n1', 'Percent Effect', '%', -3.52),
  ('CN(CCc1ccccn1)S(=O)(=O)N1CCCC1c1ccco1 (configuration not stated)', 'Percent Effect', '%', 2.74),
  ('O=C(CN1CCC(N2CCNC2=O)CC1)NCC(F)(F)F', 'Percent Effect', '%', -4.25),
  ('CN(C)CC1(O)CCN(S(=O)(=O)c2ccc(F)cc2)C1 (configuration not stated)', 'Percent Effect', '%', 6.17),
  ('CC(CNC(=O)c1ccccc1Oc1cccnc1)N(C)C (configuration not stated)', 'Percent Effect', '%', -2.99),
  ('O=C(c1cccc2c1OCO2)N1CCCC1Cn1cccn1 (configuration not stated)', 'Percent Effect', '%', 1.97),
  ('Cc1cc(C)nc(CCNC(=O)C(c2ccc(F)cc2)N(C)C)n1 (configuration not stated)', 'Percent Effect', '%', 8.61),
  ('CC(C)OCCN(Cc1cccc(O)c1)C1CCC(O)CC1 (configuration not stated)', 'Percent Effect', '%', -1.14),
  ('O=C(CCc1ccc(Br)cc1F)NS(=O)(=O)c1ccc2c(c1)OCCO2', 'Percent Effect', '%', 13.3),
  ('CN(C)C(=O)N1C[C@@H]2CCCO[C@@H]2[C@H](N(C)Cc2ccco2)C1', 'Percent Effect', '%', 2.03),
  ('CC(=O)N1CCCC(Cc2cncc(Br)c2)CC1 (configuration not stated)', 'Percent Effect', '%', -0.231),
  ('CN1CC(=O)N(c2cccnc2)CC12CCN(C(=O)C1CCCCC1)C2 (configuration not stated)', 'Percent Effect', '%', 6.75),
  ('O=C(CCCn1cncn1)NC1(c2ccccc2)CCC1', 'Percent Effect', '%', 1.86),
  ('CCc1nc(CN2CCCC(NCc3ncc(C(C)(C)C)o3)C2)no1 (configuration not stated)', 'Percent Effect', '%', 2.6),
  ('COCc1ccc(CNC(=O)C2=NN(c3ccccc3)C(=O)CN2)cc1', 'Percent Effect', '%', 6.06),
  ('Cc1cnn(CC2CN(Cc3nnc(C4CC4)o3)CCO2)c1 (configuration not stated)', 'Percent Effect', '%', 87.3),
  ('CCc1nnc2n1CCN(C(=O)C(C)COCc1ccccc1)C2 (configuration not stated)', 'Percent Effect', '%', 0.611),
  ('Cc1ccc(CN2CCC(F)(F)C3(CCN(c4cnccn4)C3)C2)o1 (configuration not stated)', 'Percent Effect', '%', 11.5),
  ('Cc1noc([C@H]2C[C@@H]3CCN(C(=O)C4CCOCC4)C[C@H]3O2)n1', 'Percent Effect', '%', 7.28),
  ('CN(CCO)C[C@@H]1CN(C(=O)c2c(F)cccc2Cl)C[C@@H]1CO', 'Percent Effect', '%', 1.2),
  ('CCN(C)c1ncnc2c1CCN(C(=O)c1ccno1)CC2', 'Percent Effect', '%', 0.989),
  ('CC(=O)N1CCCN(C(=O)NCCc2ccc(Cl)s2)CC1', 'Percent Effect', '%', 2.05),
  ('CNC(=O)CCNC(=O)c1cccc(Cn2nc(C)cc2C)c1', 'Percent Effect', '%', 1.31),
  ('CC(C)n1c(=O)nc2n1C(=O)N(c1ccccc1)C2', 'Percent Effect', '%', -0.93),
  ('CCC(CNC(=O)c1cc(OC)ccc1Br)N1CCc2ccccc2C1 (configuration not stated)', 'Percent Effect', '%', 3.64),
  ('Cc1nc(C2CCCN2CC(=O)N2CCCc3ccccc32)no1 (configuration not stated)', 'Percent Effect', '%', -3.99),
  ('Cc1oc(C(=O)O)cc1S(=O)(=O)Nc1cc(Cl)ccc1F', 'Percent Effect', '%', -3.17);
